- Test system: HOP-92 NSCLC
- protocol details: NCI-60 one-dose screen, 48 h (100 = growth as untreated, 0 = no growth, -100 = all killed)
- test conditions: 10 µM unless noted
The panel holds about 83,000 compounds, 20% with a hit somewhere; the sample as a whole holds those more often.
The threshold is 70%. Values of growth beneath it are tagged Satisfied; values meeting or exceeding it are tagged Not satisfied.

is_below(growth, 70%) for Cc1ccc(-c2nn(-c3ccccc3)cc2C=C2C(=O)ON=C2C(C)C)cc1 ?
Not satisfied

is_below(growth, 70%) for Cc1ccc2c(n1)C(=O)c1[nH]c3ccccc3c1C2=O ?
Not satisfied

is_below(growth, 70%) for CO[C@H]1/C=C(/C)CCC[C@H](C)[C@H](O)[C@@H](C)C(=O)C(C)(C)[C@@H](O)CC(=O)O[C@@H]1/C(C)=C/c1csc(C)n1 ?
Satisfied

is_below(growth, 70%) for Cc1ccccc1NC(=O)c1sc2nc(C)c(C(=O)/C=C/c3ccccc3)cc2c1N ?
Satisfied

is_below(growth, 70%) for CCCCCCCCCCCCCCCC(N)c1ccccc1 (stereo not given) ?
Satisfied

Data credit: PubChem BioAssay (NCI)
